Assay target: collagenase obtained from a culture of human synovial fibroblasts (Homo sapiens, UniProt P03956)
Construct: endogenous in cells
Sequence (P03956 100-469): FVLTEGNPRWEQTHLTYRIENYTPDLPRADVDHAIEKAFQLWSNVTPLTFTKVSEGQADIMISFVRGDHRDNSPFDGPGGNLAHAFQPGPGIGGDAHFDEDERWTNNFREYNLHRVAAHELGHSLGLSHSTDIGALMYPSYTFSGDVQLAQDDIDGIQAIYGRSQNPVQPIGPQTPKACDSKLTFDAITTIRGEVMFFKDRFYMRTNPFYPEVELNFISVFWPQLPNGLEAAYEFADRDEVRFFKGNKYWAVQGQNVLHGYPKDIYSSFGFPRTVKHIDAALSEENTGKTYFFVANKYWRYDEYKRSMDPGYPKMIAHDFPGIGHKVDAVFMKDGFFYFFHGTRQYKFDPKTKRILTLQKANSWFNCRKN
Experimental details: in vitro collagenase inhibiting activity (14C-acetylated collagen type I from rat tail tendons as substrate, microtitre plate assay)
Condition set: human synovial fibroblast collagenase, trypsin-activated; 14C-acetylated rat tail tendon collagen type I
Structures can show the parent of a compound that is named as a salt.
Metric name: IC50 (nM)
Provide the reading as a plain figure in nM.

- Compound: "CNC(=O)[C@@H](NC(=O)[C@H](CC(C)C)C(CN1C(=O)CCC1=O)C(=O)NO)C(C)(C)C (single isomer, unassigned)"
  Metric name: "IC50"
  Result number: 0.5
- Compound: "CNC(=O)[C@@H](NC(=O)[C@H](CC(C)C)C(CCCc1ccccc1)C(=O)NO)C(C)(C)C (single isomer, unassigned)"
  Metric name: "IC50"
  Result number: 1.9
- Compound: "CNC(=O)[C@@H](NC(=O)C(CC(C)C)[C@H](C)C(=O)NO)C(C)(C)C (single isomer, unassigned; isomer 2)"
  Metric name: "IC50"
  Result number: 2
- Compound: "CNC(=O)[C@@H](NC(=O)[C@H](CC(C)C)C(CCCC(=O)OC)C(=O)NO)C(C)(C)C (single isomer, unassigned)"
  Metric name: "IC50"
  Result number: 0.9
- Compound: "CNC(=O)C(NC(=O)C(CC(C)C)C(N)P(=O)(O)CN1C(=O)c2cccc3c(O)c(Br)cc(c23)C1=O)C(C)(C)C (single isomer, unassigned) [Compound C, hydrobromide]"
  Metric name: "IC50"
  Result number: 9

Quick check: IC50 of CNC(=O)[C@@H](NC(=O)C(CC(C)C)CP(=O)(O)CN1C(=O)c2cccc3c(O)c(Br)cc(c23)C1=O)C(C)(C)C (single isomer, unassigned) ?
4

Looking for the measured IC50 of CNC(=O)[C@@H](NC(=O)[C@@H](CC(=O)NO)CC(C)C)C(C)(C)C , can you help?
4
